Emax reference
biological target: sGC α1/β1 heterodimer (Homo sapiens, UniProt Q02108+Q02153); construct: expressed in transfected cells; host or cells: CHO-K1 (clone #7, CHO-K1/sGC); experiment: Cell-based sGC functional assay (CASA assay): cGMP generation in CHO-K1/sGC cells, HTRF detection; conditions: CHO-K1, percent activation relative to standard Compound A in CHO-K1/sGC cells; read-out: % Act.
Sequence (Q02108 whole entry): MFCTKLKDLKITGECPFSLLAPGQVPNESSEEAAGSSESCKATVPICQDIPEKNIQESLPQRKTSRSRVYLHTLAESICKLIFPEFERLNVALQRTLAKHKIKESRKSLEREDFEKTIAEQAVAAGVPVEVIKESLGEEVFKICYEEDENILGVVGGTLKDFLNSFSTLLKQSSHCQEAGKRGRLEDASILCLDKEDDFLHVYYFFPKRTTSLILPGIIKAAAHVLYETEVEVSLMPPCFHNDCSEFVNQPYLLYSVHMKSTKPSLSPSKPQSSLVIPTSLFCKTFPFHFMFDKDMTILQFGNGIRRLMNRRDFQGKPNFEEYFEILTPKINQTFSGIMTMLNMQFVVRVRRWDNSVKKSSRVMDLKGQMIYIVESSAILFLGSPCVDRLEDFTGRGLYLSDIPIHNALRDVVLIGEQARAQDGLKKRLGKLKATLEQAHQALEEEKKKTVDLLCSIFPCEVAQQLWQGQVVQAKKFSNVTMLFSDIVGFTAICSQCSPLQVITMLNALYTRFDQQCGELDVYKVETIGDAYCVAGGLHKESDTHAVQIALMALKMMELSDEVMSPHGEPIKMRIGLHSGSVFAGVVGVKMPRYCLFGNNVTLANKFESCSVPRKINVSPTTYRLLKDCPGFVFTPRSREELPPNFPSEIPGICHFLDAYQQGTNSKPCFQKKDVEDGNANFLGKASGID
Sequence (Q02153 whole entry): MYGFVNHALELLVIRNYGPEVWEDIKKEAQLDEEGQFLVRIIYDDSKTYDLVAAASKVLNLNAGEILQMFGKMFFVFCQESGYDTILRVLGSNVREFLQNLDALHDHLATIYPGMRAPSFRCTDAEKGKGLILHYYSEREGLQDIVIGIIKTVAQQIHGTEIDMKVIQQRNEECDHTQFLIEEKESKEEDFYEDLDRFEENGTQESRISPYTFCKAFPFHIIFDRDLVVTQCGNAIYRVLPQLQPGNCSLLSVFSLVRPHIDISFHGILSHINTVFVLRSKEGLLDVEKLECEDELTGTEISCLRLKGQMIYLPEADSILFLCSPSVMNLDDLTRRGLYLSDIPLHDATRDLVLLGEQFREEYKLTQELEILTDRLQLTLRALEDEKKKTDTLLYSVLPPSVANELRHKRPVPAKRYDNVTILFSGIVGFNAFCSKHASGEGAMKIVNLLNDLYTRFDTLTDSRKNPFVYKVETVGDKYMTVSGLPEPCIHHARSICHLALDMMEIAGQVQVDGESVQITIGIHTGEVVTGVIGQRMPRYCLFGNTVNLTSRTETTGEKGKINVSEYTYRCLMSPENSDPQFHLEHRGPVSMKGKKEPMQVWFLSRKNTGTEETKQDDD
Quick reminder: number only, in %, skip the unit.

# annotated cases, reported Emax shown
CC1(c2ccc(Cl)cn2)C(=O)Nc2nc(-c3cn4ccnc4c(CCC(F)(F)F)n3)nc(N)c21 (centres unmarked) [Example 201A]
140
CC1(c2ccc(Cl)cc2)C(=O)Nc2nc(-c3cn4ccnc4c(CCC(F)(F)F)n3)nc(N3CCOCC3)c21 (centres unmarked) [Example 297A]
101
CCc1ccc(C2(C)C(=O)Nc3nc(-c4cn5ccnc5c(CCC(F)(F)C(F)(F)F)n4)nc(N)c32)cn1 (centres unmarked) [Example 243B]
106

Need Emax, item CN(C)c1nc(-c2cn3ccnc3c(CCC(F)(F)C(F)(F)F)n2)nc2c1C(C)(c1ccc(F)cn1)C(=O)N2 (centres unmarked) [Example 291B]
126

Need Emax, item CC1(c2ccc(Cl)cc2)C(=O)Nc2nc(-c3cn4ccnc4cn3)nc(N3CCC(C(F)(F)F)CC3)c21 (centres unmarked) [Example 280A]
102

Need Emax, item CCC1(c2ccc(F)cn2)C(=O)Nc2nc(-c3cn4ccnc4c(CCC(F)(F)C(F)(F)F)n3)nc(N)c21 (centres unmarked) [Example 249A]
96

Need Emax, item CC1(c2ccccn2)C(=O)Nc2nc(-c3cn4ccnc4c(Cc4ccc(F)cc4)n3)nc(N)c21 (centres unmarked) [Example 103B]
85

Need Emax, item CC1(c2noc(C3CC3)n2)C(=O)Nc2nc(-c3cn4ccnc4c(CCC(F)(F)C(F)(F)F)n3)nc(N)c21 (single isomer, unassigned) [Example 333B]
81

Need Emax, item Nc1nc(-c2cn3ccnc3c(CCC(F)(F)C(F)(F)F)n2)nc2c1C(c1ccc(Cl)cc1)(C1CCC1)C(=O)N2 (single isomer, unassigned) [Example 350B]
239

Need Emax, item CC1(c2cc(F)cc(F)c2)C(=O)Nc2nc(-c3cn4ccnc4cn3)nc(N)c21 (centres unmarked) [Example 142B]
166

Need Emax, item CCCCc1nc(-c2nc(N)c3c(n2)NC(=O)C3(c2ccc(Cl)cc2F)C2CC2)cn2ccnc12 (centres unmarked) [Example 369A]
109

Need Emax, item COCCNc1nc(-c2cn3ccnc3c(CCC(F)(F)C(F)(F)F)n2)nc2c1C(C)(c1ccc(F)cc1)C(=O)N2 (centres unmarked) [Example 309A]
97

Need Emax, item CC1(c2ccc(Cl)cc2)C(=O)Nc2nc(-c3cn4ccnc4c(CC4CCC4)n3)nc(N)c21 (centres unmarked) [Example 118A]
76

Need Emax, item CCc1nc(-c2nc(N)c3c(n2)NC(=O)C3(C)c2ccc(Cl)cc2)cn2ccnc12 (single isomer, unassigned) [Example 1A]
124
